molecular target: UniProt Q29010; test: Compound was evaluated for the binding affinity towards Endothelin A receptor in porcine aortic membranes; type: cell membranes
Sequence (Q29010 whole entry): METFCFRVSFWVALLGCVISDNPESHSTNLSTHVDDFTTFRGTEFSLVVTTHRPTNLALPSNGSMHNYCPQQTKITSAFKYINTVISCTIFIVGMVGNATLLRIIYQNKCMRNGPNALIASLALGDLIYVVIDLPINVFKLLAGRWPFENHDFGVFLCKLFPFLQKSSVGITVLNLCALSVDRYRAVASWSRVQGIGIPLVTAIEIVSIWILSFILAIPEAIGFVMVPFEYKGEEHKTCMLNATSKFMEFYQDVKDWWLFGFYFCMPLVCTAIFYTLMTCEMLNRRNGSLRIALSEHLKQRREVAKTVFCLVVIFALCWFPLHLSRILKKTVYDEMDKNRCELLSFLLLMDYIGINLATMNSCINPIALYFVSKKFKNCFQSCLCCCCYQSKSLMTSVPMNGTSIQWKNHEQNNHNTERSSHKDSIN
pIC50: −log10 of the molar value.
Criterion: pIC50 meeting or surpassing 5. Met: Fulfilled. Not met: Not fulfilled.

State whether the measured pIC50 reaches 5, counting equality as reaching it, for `CC(C)C[C@H](NC(=O)N1CCCCCC1)C(=O)N(C)[C@H](Cc1c[nH]c2ccccc12)C(=O)N[C@H](Cc1ccccn1)C(=O)N[C@@H](Cc1ccccc1)C(=O)O`
Not fulfilled

State whether the measured pIC50 reaches 5, counting equality as reaching it, for `CC(C)C[C@H](NC(=O)N1CCCCCC1)C(=O)N(C)[C@H](Cc1c[nH]c2ccccc12)C(=O)N[C@H](Cc1ccccn1)C(=O)O`
Fulfilled

State whether the measured pIC50 reaches 5, counting equality as reaching it, for `CC(C)C[C@H](NC(=O)Cc1ccccc1Cl)C(=O)N(C)[C@H](Cc1c[nH]c2ccccc12)C(=O)N[C@H](CC(C)C)C(=O)O`
Not fulfilled

State whether the measured pIC50 reaches 5, counting equality as reaching it, for `CC(C)C[C@H](NC(=O)C1CCCCC1)C(=O)N(C)[C@H](Cc1c[nH]c2ccccc12)C(=O)N[C@H](Cc1ccccn1)C(=O)O.Cl`
Fulfilled

Origin of measurements: ChEMBL document CHEMBL1125446
